target: Progesterone receptor (Homo sapiens, UniProt P06401); experiment: Effective concentration against PR (progesterone receptor)
MEASUREMENT_TYPE: EC50 (nM)
Lab book: enter the figure in nM, no units written.

EC50 recorded for this compound, CC1(C)OC(=S)Nc2ccc(-c3csc(C#N)c3)cc21 , is 0.38

----------
target: UniProt P06401; experiment: Effective concentration on alkaline phosphatase activity in human T47D breast carcinoma cell line.; assay type: functional, cell-based
pEC50: −log10 of the molar value.
MEASUREMENT_TYPE: pEC50

CC1(C)OC(=S)Nc2ccc(-c3cc(Cl)cc(Cl)c3)cc21 :: 7.58
CC1(C)OC(=S)Nc2ccc(-c3ccc(C#N)o3)cc21 :: 8.90
CC1OC(=S)Nc2ccc(-c3cccc(F)c3)cc21 (stereo not drawn) :: 6.52
SC1=Nc2ccc(-c3cccc(Cl)c3)cc2C(Cc2ccccc2)(Cc2ccccc2)O1 :: 6.00
CC1(C)OC(=S)Nc2ccc(-c3cc(F)cc(C(F)(F)F)c3)cc21 :: 8.60
CC1(C)OC(=S)Nc2ccc(-c3cc(Cl)cc(C#N)c3)cc21 :: 7.35
CC1(C)OC(=S)Nc2ccc(-c3ccc(F)c(F)c3)cc21 :: 7.94
CC1(C)OC(=S)Nc2ccc(-c3cccc([N+](=O)[O-])c3)cc21 :: 8.96
CC1(C)OC(=S)Nc2ccc(-c3cccc(C#N)c3)cc21 :: 9.40
CC1(C)OC(=S)Nc2c(Br)cc(-c3cc(F)cc(C#N)c3)cc21 :: 7.10

I. CC1(C)OC(=S)Nc2ccc(-c3ccccc3F)cc21
II. CC1(C)OC(S)=Nc2ccc(-c3cc(F)cc(Cl)c3)cc21
(Q) // which entry has the larger pEC50 value, I or II ? Could you answer with the label of the item you picked?
(A) II

A. CC1(C)OC(=S)Nc2ccc(-c3cccc(Cl)c3)cc21
B. CC1(C)OC(=S)Nc2c(F)cc(-c3cc(F)cc(C#N)c3)cc21
C. CC1(c2ccccc2)OC(=S)Nc2ccc(-c3cccc(Cl)c3)cc21 (stereo not drawn)
(Q) Hello, I need these entries ordered by pEC50, highest reading first. Thanks! # list labels per requested ordering
(A) A, C, B
(A: 8.77, C: 8.24, B: 6.00)

I. CC1(C)OC(=S)Nc2ccc(-c3cc(F)cc(Br)c3)cc21
II. Cc1cc(C#N)cc(-c2ccc3c(c2)C(C)(C)OC(=S)N3)c1
(Q) Quick one: lower pEC50, I or II ? Respond using the label that marks the chosen record.
(A) II
(II: 6.70, I: 8.77)

1. CCC1(CC)OC(=S)Nc2ccc(-c3cccc([N+](=O)[O-])c3)cc21
2. CC1(C)OC(=S)Nc2ccc(-c3cccc(Br)c3)cc21
(Q) Decide: 1 or 2 , by lowest recorded pEC50. Answer with the label corresponding to your selection.
(A) 1
(1: 8.33, 2: 8.60)

----------
target: Glucocorticoid receptor (Homo sapiens); assay: Effective concentration against GR (glucocorticoid receptor)
Sequence (P04150 whole entry): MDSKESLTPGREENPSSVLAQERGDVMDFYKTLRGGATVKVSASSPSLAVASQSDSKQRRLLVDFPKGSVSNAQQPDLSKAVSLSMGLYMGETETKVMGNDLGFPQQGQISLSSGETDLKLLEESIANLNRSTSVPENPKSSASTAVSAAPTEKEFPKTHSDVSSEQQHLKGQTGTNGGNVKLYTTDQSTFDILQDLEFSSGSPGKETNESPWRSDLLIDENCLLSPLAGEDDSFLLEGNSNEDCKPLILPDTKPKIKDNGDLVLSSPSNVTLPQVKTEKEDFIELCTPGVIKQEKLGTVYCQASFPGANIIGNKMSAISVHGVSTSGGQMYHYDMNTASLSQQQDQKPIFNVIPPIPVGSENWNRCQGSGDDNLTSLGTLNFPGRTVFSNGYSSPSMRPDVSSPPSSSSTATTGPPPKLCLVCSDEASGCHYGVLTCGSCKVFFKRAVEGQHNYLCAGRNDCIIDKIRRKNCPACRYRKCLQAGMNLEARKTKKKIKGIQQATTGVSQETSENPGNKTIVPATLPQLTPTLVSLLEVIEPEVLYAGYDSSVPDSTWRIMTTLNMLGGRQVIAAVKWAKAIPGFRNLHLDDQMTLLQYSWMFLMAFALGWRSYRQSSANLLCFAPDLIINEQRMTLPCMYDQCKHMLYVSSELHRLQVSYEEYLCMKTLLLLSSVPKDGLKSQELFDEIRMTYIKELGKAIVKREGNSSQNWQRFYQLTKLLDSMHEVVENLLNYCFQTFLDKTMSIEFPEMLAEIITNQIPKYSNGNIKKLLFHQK
MEASUREMENT_TYPE: EC50

GET /value?item= CC1(C)OC(=S)Nc2ccc(-c3csc(C#N)c3)cc21 &field=EC50 returns > 10 µM

----------
Biological target: UniProt P19091
Sequence (P19091 whole entry): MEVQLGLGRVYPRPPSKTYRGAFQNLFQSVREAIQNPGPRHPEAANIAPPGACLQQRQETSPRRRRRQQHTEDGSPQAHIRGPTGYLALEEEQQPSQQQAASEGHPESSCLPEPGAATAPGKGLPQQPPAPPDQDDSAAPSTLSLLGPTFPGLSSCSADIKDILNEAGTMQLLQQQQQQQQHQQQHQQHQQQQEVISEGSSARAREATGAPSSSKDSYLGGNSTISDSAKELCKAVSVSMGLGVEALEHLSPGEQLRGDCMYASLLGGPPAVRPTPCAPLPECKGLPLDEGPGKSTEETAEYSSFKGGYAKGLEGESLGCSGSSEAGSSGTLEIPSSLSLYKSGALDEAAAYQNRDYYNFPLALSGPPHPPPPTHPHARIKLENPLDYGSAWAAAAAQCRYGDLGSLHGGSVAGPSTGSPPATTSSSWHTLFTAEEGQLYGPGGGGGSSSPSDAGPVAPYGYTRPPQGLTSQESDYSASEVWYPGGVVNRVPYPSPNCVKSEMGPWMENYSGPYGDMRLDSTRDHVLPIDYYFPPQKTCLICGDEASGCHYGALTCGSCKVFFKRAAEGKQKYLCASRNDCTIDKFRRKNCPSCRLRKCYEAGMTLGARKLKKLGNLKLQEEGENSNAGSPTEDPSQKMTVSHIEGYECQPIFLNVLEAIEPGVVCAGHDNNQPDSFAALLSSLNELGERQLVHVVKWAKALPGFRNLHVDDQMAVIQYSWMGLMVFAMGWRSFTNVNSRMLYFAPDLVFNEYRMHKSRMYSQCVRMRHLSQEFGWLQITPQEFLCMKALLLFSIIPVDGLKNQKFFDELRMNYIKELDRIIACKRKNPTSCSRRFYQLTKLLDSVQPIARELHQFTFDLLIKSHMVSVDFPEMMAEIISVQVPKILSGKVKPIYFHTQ
Assay: Effective concentration against Androgen receptor
MEASUREMENT_TYPE: EC50

Briefly, EC50 measured for CC1(C)OC(=S)Nc2ccc(-c3csc(C#N)c3)cc21 : > 10 µM

----------
molecular target: Progesterone receptor (Homo sapiens, UniProt P06401); experiment: Inhibition of [3H]P4 to progesterone receptor (PR) of human T47D breast carcinoma cells; assay type: cell-based
MEASUREMENT_TYPE: IC50 (nM)

Example cases with answers are listed next.
CN1C(=S)OC(C)(C)c2cc(-c3cc(F)cc(Br)c3)ccc21 :: 100
CCN1C(=S)OC(C)(C)c2cc(-c3cc(F)cc(C#N)c3)ccc21 :: 100

a. CC1(C)OC(=S)Nc2ccc(-c3csc(C#N)c3)cc21
b. CN1C(=S)OC(C)(C)c2cc(-c3cccc(Br)c3)ccc21
(Q) When a and b are compared, which has the higher number for IC50? Please indicate the selected item by its label.
(A) b
(b: 114 nM, a: 3 nM)

----------
biological target: UniProt:P04150
MEASUREMENT_TYPE: pIC50
Expect pIC50 as a plain number equal to -log10 of the molar concentration.

The reported pIC50 of the compound CC1(C)OC(=S)Nc2ccc(-c3csc(C#N)c3)cc21 was 5.88

----------
Target: Progesterone receptor (Homo sapiens, UniProt P06401)
Sequence (P06401 whole entry): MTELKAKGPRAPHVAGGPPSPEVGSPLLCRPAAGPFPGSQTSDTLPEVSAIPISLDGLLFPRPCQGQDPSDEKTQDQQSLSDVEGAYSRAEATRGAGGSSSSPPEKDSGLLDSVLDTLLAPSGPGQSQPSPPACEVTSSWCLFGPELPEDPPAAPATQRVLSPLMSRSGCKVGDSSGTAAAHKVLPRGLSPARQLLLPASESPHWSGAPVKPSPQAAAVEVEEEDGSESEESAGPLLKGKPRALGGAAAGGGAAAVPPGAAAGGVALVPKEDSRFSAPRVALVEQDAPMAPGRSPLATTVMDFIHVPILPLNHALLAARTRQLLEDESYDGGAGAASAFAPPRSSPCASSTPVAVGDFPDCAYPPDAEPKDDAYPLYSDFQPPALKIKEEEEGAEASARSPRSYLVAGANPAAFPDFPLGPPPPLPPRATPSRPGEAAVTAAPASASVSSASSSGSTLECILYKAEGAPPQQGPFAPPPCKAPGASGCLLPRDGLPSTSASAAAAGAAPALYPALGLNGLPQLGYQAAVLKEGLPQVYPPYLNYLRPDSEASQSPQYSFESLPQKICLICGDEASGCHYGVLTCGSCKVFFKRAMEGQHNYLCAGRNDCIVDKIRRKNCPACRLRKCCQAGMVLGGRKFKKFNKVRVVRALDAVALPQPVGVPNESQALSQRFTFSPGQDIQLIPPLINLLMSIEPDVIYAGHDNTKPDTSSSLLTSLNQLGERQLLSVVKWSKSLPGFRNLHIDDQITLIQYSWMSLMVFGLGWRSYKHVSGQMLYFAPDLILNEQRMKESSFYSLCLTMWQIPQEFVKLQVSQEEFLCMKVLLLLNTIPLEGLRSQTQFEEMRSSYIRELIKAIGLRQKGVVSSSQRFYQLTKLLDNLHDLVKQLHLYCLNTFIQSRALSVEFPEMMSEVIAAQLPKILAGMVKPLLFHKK
Assay: Effective concentration on alkaline phosphatase activity in human T47D breast carcinoma cell line.
Assay type: functional, cell-based
MEASUREMENT_TYPE: EC50 (nM)

P. CC1(C)OC(=S)Nc2ccc(-c3ccc(C#N)s3)cc21
Q. CC1(C)OC(=S)Nc2ccc(-c3ccccc3Cl)cc21
R. CC1(C)OC(S)=Nc2c(Br)cc(-c3ccc(Cl)c(F)c3)cc21
S. CC1(C)OC(=S)Nc2ccc(-c3cccc(F)c3F)cc21
(Q) Could you put the items above in increasing order of their EC50? Response format: the labels, sorted as the prompt asks.
(A) P, S, Q, R

A. CC1(C)OC(=S)Nc2ccc(-c3cc(F)cc(C#N)c3)cc21
B. C=CCC1(C)OC(=S)Nc2ccc(-c3cccc(Cl)c3)cc21 (stereo not drawn)
(Q) Between A and B , whose measured EC50 reads higher? # reply format: chosen label
(A) A
(A: 0.6 nM, B: 0.3 nM)

1. CC1(C)OC(=S)Nc2ccc(-c3coc(C#N)c3)cc21
2. CCC1(CC)OC(=S)Nc2ccc(-c3cccc(Cl)c3)cc21
3. COc1cc(F)cc(-c2ccc3c(c2)C(C)(C)OC(=S)N3)c1
(Q) Task field, ranking: reported EC50, descending order. Arrange the labels as the request states and list them.
(A) 2, 3, 1

Attribution: ChEMBL document CHEMBL1136686
